Would you kindly list composite z-score for each of these compounds?
target: Albumin (Bos taurus); test: bovine serum albumin binders on microarray, profiling panel, artefact control for SMM control protein annotation, biochemical, small-molecule microarray, Alexa647 label, 635/667 nm fluorescence (AID 1118); details: BSA-A647 binding, fluorescence 635 nm, higher = more signal;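 also: score merges 667 nm emission intensity and signal-to-noise per printed compound spot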
Write no unit; give the number alone.

Which composite z-score is reported for this compound? `O=C1c2ccccc2[C@@]2(Cc3ccccc3N(C3CC3)C2=O)[C@H](c2ccc(CO)cc2)N1Cc1ccccc1C(F)(F)F`
-0.259

Which composite z-score is reported for this compound? `C[C@H]1CC[C@@H](C(=O)O)N[C@@H]1c1ccc(C#CCN(C)C)cc1`
-0.0169

Which composite z-score is reported for this compound? COc1ccc(O[C@H]2C=C[C@@H](c3ccccc3)O[C@@H]2COC(=O)CCC(C)=NOC(C)CN2CCCCc3nc(C)c(C)cc32)cc1 (some centres not stated)
-0.485

Which composite z-score is reported for this compound? `CC(C)C[C@@H]1NC(=O)[C@H]2C[C@@H](C(=O)O)[C@@H](c3ccc(O)cc3)N2C1=O`
0.111

Which composite z-score is reported for this compound? `CC(CCC(=O)OC[C@H]1O[C@H](C#Cc2ccccc2)C=C[C@@H]1Oc1ccc(C)cc1)=NO[C@@H](C)c1cn([C@H](CO)Cc2ccccc2)nn1`
0.0449

Which composite z-score is reported for this compound? `COC(=O)[C@@H]1CC[C@H](C)[C@@H](c2ccc(C)cc2)N1C(=O)c1ccc(C=NOC[C@@H](O)COCc2ccco2)cc1`
-0.188

Which composite z-score is reported for this compound? `COC(=O)CC=C[C@@H](C)[C@@H](C=NO[C@H](C)c1cn([C@@H]2COC[C@H]2O)nn1)OC`
0.162

This collection of values is drawn from PubChem BioAssay.
